Biological target: EGFR L858R (BaF3-L858R cells) (Homo sapiens, UniProt P00533, L858R)
Construct: host or cells: BaF3
Sequence (P00533 25-1210 L858R): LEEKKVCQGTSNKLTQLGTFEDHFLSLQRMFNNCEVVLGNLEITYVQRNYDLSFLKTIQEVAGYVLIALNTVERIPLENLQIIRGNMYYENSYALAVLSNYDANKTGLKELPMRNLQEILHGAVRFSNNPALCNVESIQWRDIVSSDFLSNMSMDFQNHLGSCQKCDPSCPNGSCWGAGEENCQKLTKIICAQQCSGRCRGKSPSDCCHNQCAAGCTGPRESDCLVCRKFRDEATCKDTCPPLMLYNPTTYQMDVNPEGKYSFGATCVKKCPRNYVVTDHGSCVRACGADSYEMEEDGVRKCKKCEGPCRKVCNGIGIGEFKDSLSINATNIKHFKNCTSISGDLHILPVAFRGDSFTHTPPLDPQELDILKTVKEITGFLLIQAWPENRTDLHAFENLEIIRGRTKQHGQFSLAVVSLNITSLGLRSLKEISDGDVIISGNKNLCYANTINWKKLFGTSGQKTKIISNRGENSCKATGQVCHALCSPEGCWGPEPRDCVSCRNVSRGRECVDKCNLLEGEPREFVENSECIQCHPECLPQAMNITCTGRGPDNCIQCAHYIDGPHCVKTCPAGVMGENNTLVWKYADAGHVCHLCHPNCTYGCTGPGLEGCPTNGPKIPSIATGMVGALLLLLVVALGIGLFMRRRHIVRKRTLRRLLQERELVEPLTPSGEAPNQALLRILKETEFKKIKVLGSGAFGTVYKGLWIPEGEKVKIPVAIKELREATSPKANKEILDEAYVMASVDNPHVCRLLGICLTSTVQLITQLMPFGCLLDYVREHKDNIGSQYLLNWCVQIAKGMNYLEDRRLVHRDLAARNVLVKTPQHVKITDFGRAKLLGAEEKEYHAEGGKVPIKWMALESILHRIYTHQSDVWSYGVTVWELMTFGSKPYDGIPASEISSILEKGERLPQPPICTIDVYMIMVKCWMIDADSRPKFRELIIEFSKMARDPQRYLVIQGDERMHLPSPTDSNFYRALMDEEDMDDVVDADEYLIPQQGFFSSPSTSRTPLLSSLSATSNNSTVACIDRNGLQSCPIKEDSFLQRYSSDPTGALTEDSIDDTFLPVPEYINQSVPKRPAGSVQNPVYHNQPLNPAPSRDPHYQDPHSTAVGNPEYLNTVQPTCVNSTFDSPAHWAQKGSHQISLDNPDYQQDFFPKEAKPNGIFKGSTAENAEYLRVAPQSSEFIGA
Assay: Cell degradation of EGFR, HTRF assay, BaF3-L858R cells
Type: cell-based
Conditions: 16 h treatment, maximum percentage of degradation
Property: Dmax (%)

Cc1cc2cc(n1)-c1cnn(C)c1OC[C@H]1CC[C@H](C1)CN1/C(=N/C2=O)Nc2ccc(N3CCN(C4CCN(c5cc(F)c([C@H]6CCC(=O)NC6=O)c(F)c5)CC4)CC3)cc21: 89.7
Cc1cc2cc(n1)-c1c(C)nn(C)c1OC[C@H]1CCC(C1)CN1/C(=N/C2=O)Nc2ccc(N3CCN(C4CCN(c5ccc(C6CCC(=O)NC6=O)nc5C)CC4)CC3)cc21 (some centres unmarked): 91.6
COC[C@H]1CN(c2ccc3c(c2)N2C[C@@H]4CC[C@H](COc5c(c(C)nn5C)-c5cc(cc(C)n5)C(=O)/N=C/2N3)C4)CCN1C1CCN(c2ccc(NC3CCC(=O)NC3=O)cc2C)CC1 (some centres unmarked): 91.9
Cc1cc2cc(n1)-c1c(C)nn(C)c1OC[C@H]1CC[C@H](C1)CN1/C(=N/C2=O)Nc2ccc(N3C[C@H](C)N(C4CCN(c5cc(F)c([C@H]6CCC(=O)NC6=O)c(F)c5)CC4)C[C@H]3C)cc21: 89.3
Cc1cc2cc(n1)-c1cnn(C)c1OC[C@H]1CC[C@H](C1)CN1/C(=N/C2=O)Nc2ccc(N3CCN(CC4CN(c5ccc6c(c5)CN(C5CCC(=O)NC5=O)C6=O)C4)CC3)cc21 (some centres unmarked): 91.8
